- targetEntity: human P2X4 (Homo sapiens)
- Construct: expressed in transfected cells
- Sequence (Q99571 1-388): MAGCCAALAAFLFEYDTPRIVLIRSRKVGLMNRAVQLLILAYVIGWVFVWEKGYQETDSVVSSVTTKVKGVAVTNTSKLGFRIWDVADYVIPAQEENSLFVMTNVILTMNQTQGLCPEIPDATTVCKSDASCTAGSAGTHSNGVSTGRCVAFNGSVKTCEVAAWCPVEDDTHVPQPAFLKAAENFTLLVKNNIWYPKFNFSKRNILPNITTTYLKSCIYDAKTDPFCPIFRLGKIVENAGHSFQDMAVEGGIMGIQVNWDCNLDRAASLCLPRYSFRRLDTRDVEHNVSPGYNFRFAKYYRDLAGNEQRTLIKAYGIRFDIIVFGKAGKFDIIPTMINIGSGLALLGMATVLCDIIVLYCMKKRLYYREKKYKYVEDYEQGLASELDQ
- protocolDescription: Human P2X4 HEK Cell FLIPR Assay
- Format: cell-based
- testSettings: HEK293 stably expressing human P2X4; agonist Bz-ATP 3 μM (EC80)
// Human P2X4 HEK Cells (FLIPR Assay) avg Efficacy lookup, one value per entry
Reply with just the number (in %).

Check out these entries, answers already filled in.
CC(=O)N(c1ccc(F)c(Cl)c1)c1cc(NC(=O)Cc2cccc(F)c2Cl)ccn1 [Example 52]; 98
CC(=O)N(c1cc(NC(=O)Cc2ccc(F)cc2Cl)ccn1)c1cccc(F)c1F [Example 123]; 97

Per the records, this compound ( CC(=O)N(c1cc(F)cc(F)c1)c1cc(NC(=O)Cc2ccc(F)cc2Cl)cnn1 [Example 207] ) has Human P2X4 HEK Cells (FLIPR Assay) avg Efficacy equal to 96

Per the records, this compound ( CC(=O)N(c1cccc(Cl)c1)c1cc(NC(=O)Cc2c(F)cccc2Cl)ccn1 [Example 135] ) has Human P2X4 HEK Cells (FLIPR Assay) avg Efficacy equal to 99

Per the records, this compound ( CC(=O)N(c1cccc(C(F)F)c1)c1cc(NC(=O)Cc2c(Cl)cccc2Cl)ccn1 [Example 5] ) has Human P2X4 HEK Cells (FLIPR Assay) avg Efficacy equal to 102

Per the records, this compound ( CC(=O)N(c1cc(NC(=O)Cc2ccccc2Cl)ccn1)c1ccccc1C(F)F [Example 166] ) has Human P2X4 HEK Cells (FLIPR Assay) avg Efficacy equal to 97

Per the records, this compound ( COc1c(F)cc(N(C(C)=O)c2cc(NC(=O)Cc3ccc(F)cc3Cl)ccn2)cc1F [Example 97] ) has Human P2X4 HEK Cells (FLIPR Assay) avg Efficacy equal to 89

Per the records, this compound ( CC(=O)N(c1cc(NC(=O)Cc2c(Cl)cccc2Cl)ccn1)c1ccccc1Cl [Example 109] ) has Human P2X4 HEK Cells (FLIPR Assay) avg Efficacy equal to 100

###

- targetEntity: human P2X4 (Homo sapiens, UniProt Q99571)
- Sequence (Q99571 1-388): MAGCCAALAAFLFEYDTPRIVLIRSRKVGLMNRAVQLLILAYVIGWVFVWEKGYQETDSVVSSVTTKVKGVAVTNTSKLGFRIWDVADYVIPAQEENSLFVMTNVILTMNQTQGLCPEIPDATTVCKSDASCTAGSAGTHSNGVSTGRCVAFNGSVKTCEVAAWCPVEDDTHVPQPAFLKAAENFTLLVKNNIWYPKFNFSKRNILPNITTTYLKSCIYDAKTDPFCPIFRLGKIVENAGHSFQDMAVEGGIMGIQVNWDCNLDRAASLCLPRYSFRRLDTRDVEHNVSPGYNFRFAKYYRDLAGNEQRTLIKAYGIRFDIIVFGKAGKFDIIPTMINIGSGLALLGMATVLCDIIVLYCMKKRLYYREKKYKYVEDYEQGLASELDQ
- protocolDescription: Human P2X4 HEK Cell FLIPR Assay
- testSettings: HEK293 stably expressing human P2X4; agonist Bz-ATP 3 μM (EC80); read-out: Human P2X4 HEK Cells (FLIPR Assay) avg IC50
Satisfied if IC50 is below 600 nM. Not satisfied if not; exact matches included in Not satisfied.

Reference set (3 entries):
CC(=O)N(c1ccc(C)cc1)c1cc(NC(=O)Cc2c(Cl)cccc2Cl)ccn1; Satisfied
CC(=O)N(c1ccc(F)c(F)c1)c1cc(NC(=O)Cc2cccc(F)c2Cl)ccn1; Satisfied
CC(=O)N(c1cc(NC(=O)Cc2ccccc2Cl)ccn1)c1ccccc1C(F)F; Not satisfied

is_below(IC50, 600 nM) for `CC(=O)N(c1cc(NC(=O)Cc2ccccc2Cl)ccn1)c1ccccc1Cl` ?
Not satisfied

is_below(IC50, 600 nM) for `COc1cc(F)cc(N(C(C)=O)c2cc(NC(=O)Cc3c(F)cccc3Cl)ccn2)c1` ?
Not satisfied

is_below(IC50, 600 nM) for `COc1ccc(N(C(C)=O)c2cc(NC(=O)Cc3c(Cl)cccc3Cl)ccn2)cc1F` ?
Satisfied

is_below(IC50, 600 nM) for `CC(=O)N(c1ccc(F)cc1)c1cc(NC(=O)Cc2c(F)cccc2Cl)cnn1` ?
Not satisfied

is_below(IC50, 600 nM) for `CC(=O)N(c1ccc(F)c(F)c1)c1cc(NC(=O)Cc2ccc(F)cc2Cl)cnn1` ?
Satisfied

is_below(IC50, 600 nM) for `CC(=O)N(c1cccc(C(F)(F)F)c1)c1cc(NC(=O)Cc2ccccc2Cl)ccn1` ?
Not satisfied

is_below(IC50, 600 nM) for `CC(=O)N(c1ccccc1)c1cc(NC(=O)Cc2c(Cl)cccc2Cl)cnn1` ?
Satisfied

is_below(IC50, 600 nM) for `CC(=O)N(c1cc(NC(=O)Cc2ccc(F)cc2Cl)ccn1)c1cc(F)ccc1Cl` ?
Satisfied

is_below(IC50, 600 nM) for `CC(=O)N(c1cccc(C(F)F)c1)c1cc(NC(=O)Cc2ccc(F)cc2Cl)ccn1` ?
Not satisfied

is_below(IC50, 600 nM) for `CC(=O)N(c1cccc(C(F)(F)F)c1)c1cc(NC(=O)Cc2cccc(F)c2Cl)ccn1` ?
Not satisfied

is_below(IC50, 600 nM) for `CC(=O)N(c1ccccc1)c1cc(NC(=O)Cc2ccc(F)cc2Cl)cnn1` ?
Not satisfied

is_below(IC50, 600 nM) for `CC(=O)N(c1cc(F)cc(F)c1)c1cc(NC(=O)Cc2c(C)cccc2C)ccn1` ?
Satisfied

is_below(IC50, 600 nM) for `COc1c(F)cc(N(C(C)=O)c2cc(NC(=O)Cc3cccc(F)c3Cl)ccn2)cc1F` ?
Satisfied

is_below(IC50, 600 nM) for `COc1cccc(N(C(C)=O)c2cc(NC(=O)Cc3cccc(F)c3Cl)ccn2)c1` ?
Satisfied

is_below(IC50, 600 nM) for `CC(=O)N(c1cc(F)cc(F)c1)c1cc(NC(=O)Cc2c(F)cccc2Cl)cnn1` ?
Not satisfied

is_below(IC50, 600 nM) for `CC(=O)N(c1cccc(OC(F)(F)F)c1)c1cc(NC(=O)Cc2ccccc2Cl)ccn1` ?
Not satisfied
